EC50 values by entry
Target: UniProtKB P08173
Sequence (P08173 1-479): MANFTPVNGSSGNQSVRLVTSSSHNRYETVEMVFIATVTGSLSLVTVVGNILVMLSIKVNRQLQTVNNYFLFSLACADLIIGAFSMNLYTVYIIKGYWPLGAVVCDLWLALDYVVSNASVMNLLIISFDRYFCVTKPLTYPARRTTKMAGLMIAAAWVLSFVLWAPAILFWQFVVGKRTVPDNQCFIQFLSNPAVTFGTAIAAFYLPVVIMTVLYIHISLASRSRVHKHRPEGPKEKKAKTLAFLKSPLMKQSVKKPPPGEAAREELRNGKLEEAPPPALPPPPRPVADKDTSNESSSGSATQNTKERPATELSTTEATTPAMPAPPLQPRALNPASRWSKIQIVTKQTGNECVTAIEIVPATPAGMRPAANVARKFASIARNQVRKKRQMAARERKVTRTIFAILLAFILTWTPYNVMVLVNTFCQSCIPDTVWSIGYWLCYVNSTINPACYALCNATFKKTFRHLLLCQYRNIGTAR
Experiment: Human M4 PAM pERK assay
Conditions: PAM mode

Field: example entries. Status: answers known.
[
  {
    "compound": "Cc1c2c(n(C)c(=O)c1Cl)CN(C(=O)c1cnc(C(F)F)s1)C2 [Compound I-36]",
    "result": "< 100 nM"
  },
  {
    "compound": "Cc1cc(=O)n(C)c2c1C(C)N(C(=O)c1cnc(C(F)(F)F)s1)C2 (single isomer, unassigned) [Compound I-95]",
    "result": "100 to 500 nM"
  }
]

Ask: Provide the documented EC50 with UniProtKB P08173 as the system for Cc1c2c(n(C)c(=O)c1Cl)CN(C(=O)c1cn(C(F)(F)F)cn1)C2 [Compound I-15]
Result: 100 to 500 nM

Ask: // query: Cc1c2c(n(C)c(=O)c1Cl)CN(C(=O)c1ccc(C(C)(C)C)s1)C2 [Compound I-7]
Result: 500 to 2000 nM
